- System: LPETG (Abz-LPETGK(Dnp)-CONH2)
- experiment.notes: In vitro sortase kinetics HPLC assay, LPETG substrate
- Assay type: biochemical
- conditions: substrate wt (LPETG); read-out: Km, LxExG
quantity.measured: Km (µM)
Answers are plain numbers, in µM.

Worked examples, 2 molecules total:
4S.6B: 5mut + N98D A104V A118S F122A K134P I182V E189P (protein) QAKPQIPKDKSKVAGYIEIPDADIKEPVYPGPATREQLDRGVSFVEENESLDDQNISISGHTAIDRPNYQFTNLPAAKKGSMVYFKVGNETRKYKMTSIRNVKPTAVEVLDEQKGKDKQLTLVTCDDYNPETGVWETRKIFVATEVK; 238
eSrtA(2A-4): 5mut + A104H K162R V168I I182V (protein) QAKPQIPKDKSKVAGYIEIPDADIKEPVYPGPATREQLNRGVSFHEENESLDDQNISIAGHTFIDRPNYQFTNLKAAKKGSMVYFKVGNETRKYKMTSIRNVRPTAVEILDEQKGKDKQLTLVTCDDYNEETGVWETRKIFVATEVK; 11700

query: Name the recorded Km of the item 4S.6A: 5mut + N98D A104V A118S F122A K134G I182V E189V (protein) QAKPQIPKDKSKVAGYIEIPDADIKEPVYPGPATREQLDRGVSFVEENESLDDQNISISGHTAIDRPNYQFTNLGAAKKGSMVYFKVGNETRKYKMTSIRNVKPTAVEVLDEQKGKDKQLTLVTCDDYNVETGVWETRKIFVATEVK in your answer.
result: 1290
